// data source = BigSolDB 2.1

Assay conditions: in acetone, 283.15 K
Measured endpoint: solubility (mole fraction)

Query: Report solubility (mole fraction), nothing else, for this molecule: CC(=O)c1ccc([N+](=O)[O-])cc1
Result: 0.158

Query: Report solubility (mole fraction), nothing else, for this molecule: CC(=O)c1cccc([N+](=O)[O-])c1
Result: 0.121

* * *

Assay conditions: in ethyl acetate, 278.15 K
Measured endpoint: solubility (mole fraction)

Query: Report solubility (mole fraction), nothing else, for this compound: CC(=O)c1cccc([N+](=O)[O-])c1
Result: 0.0782

Query: Report solubility (mole fraction), nothing else, for this compound: CC(=O)c1ccc([N+](=O)[O-])cc1
Result: 0.101

* * *

Assay conditions: in ethanol, 283.15 K
Measured endpoint: solubility (mole fraction)

Query: Report solubility (mole fraction), nothing else, for this compound: CC(=O)c1cccc([N+](=O)[O-])c1
Result: 0.00619

Query: Report solubility (mole fraction), nothing else, for this compound: CC(=O)c1ccc([N+](=O)[O-])cc1
Result: 0.00821

* * *

Assay conditions: in isopropanol, 288.15 K
Measured endpoint: solubility (mole fraction)

Query: Report solubility (mole fraction), nothing else, for this molecule: CC(=O)c1cccc([N+](=O)[O-])c1
Result: 0.00635

Query: Report solubility (mole fraction), nothing else, for this molecule: CC(=O)c1ccc([N+](=O)[O-])cc1
Result: 0.00577

* * *

Assay conditions: in acetone, 303.15 K
Measured endpoint: solubility (mole fraction)

Query: Report solubility (mole fraction), nothing else, for this compound: CC(=O)c1ccc([N+](=O)[O-])cc1
Result: 0.287

Query: Report solubility (mole fraction), nothing else, for this compound: CC(=O)c1cccc([N+](=O)[O-])c1
Result: 0.264

* * *

Assay conditions: in acetonitrile, 303.15 K
Measured endpoint: solubility (mole fraction)

Query: Report solubility (mole fraction), nothing else, for this compound: CC(=O)c1ccc([N+](=O)[O-])cc1
Result: 0.244

Query: Report solubility (mole fraction), nothing else, for this compound: CC(=O)c1cccc([N+](=O)[O-])c1
Result: 0.233

* * *

Assay conditions: in acetone, 278.15 K
Measured endpoint: solubility (mole fraction)

Query: Report solubility (mole fraction), nothing else, for this compound: CC(=O)c1cccc([N+](=O)[O-])c1
Result: 0.1

Query: Report solubility (mole fraction), nothing else, for this compound: CC(=O)c1ccc([N+](=O)[O-])cc1
Result: 0.134

* * *

Assay conditions: in ethyl acetate, 288.15 K
Measured endpoint: solubility (mole fraction)

Query: Report solubility (mole fraction), nothing else, for this compound: CC(=O)c1ccc([N+](=O)[O-])cc1
Result: 0.137

Query: Report solubility (mole fraction), nothing else, for this compound: CC(=O)c1cccc([N+](=O)[O-])c1
Result: 0.109

* * *

Assay conditions: in n-propanol, 298.15 K
Measured endpoint: solubility (mole fraction)

Query: Report solubility (mole fraction), nothing else, for this compound: CC(=O)c1cccc([N+](=O)[O-])c1
Result: 0.00975

Query: Report solubility (mole fraction), nothing else, for this compound: CC(=O)c1ccc([N+](=O)[O-])cc1
Result: 0.0121

* * *

Assay conditions: in acetonitrile, 293.15 K
Measured endpoint: solubility (mole fraction)

Query: Report solubility (mole fraction), nothing else, for this molecule: CC(=O)c1ccc([N+](=O)[O-])cc1
Result: 0.174

Query: Report solubility (mole fraction), nothing else, for this molecule: CC(=O)c1cccc([N+](=O)[O-])c1
Result: 0.147

* * *

Assay conditions: in ethanol, 308.15 K
Measured endpoint: solubility (mole fraction)

Query: Report solubility (mole fraction), nothing else, for this compound: CC(=O)c1ccc([N+](=O)[O-])cc1
Result: 0.0236

Query: Report solubility (mole fraction), nothing else, for this compound: CC(=O)c1cccc([N+](=O)[O-])c1
Result: 0.0204

* * *

Assay conditions: in methanol, 298.15 K
Measured endpoint: solubility (mole fraction)

Query: Report solubility (mole fraction), nothing else, for this compound: CC(=O)c1cccc([N+](=O)[O-])c1
Result: 0.0146

Query: Report solubility (mole fraction), nothing else, for this compound: CC(=O)c1ccc([N+](=O)[O-])cc1
Result: 0.0187

* * *

Assay conditions: in cyclohexane, 308.15 K
Measured endpoint: solubility (mole fraction)

Query: Report solubility (mole fraction), nothing else, for this molecule: CC(=O)c1cccc([N+](=O)[O-])c1
Result: 0.0043

Query: Report solubility (mole fraction), nothing else, for this molecule: CC(=O)c1ccc([N+](=O)[O-])cc1
Result: 0.00542

* * *

Assay conditions: in acetone, 308.15 K
Measured endpoint: solubility (mole fraction)

Query: Report solubility (mole fraction), nothing else, for this molecule: CC(=O)c1cccc([N+](=O)[O-])c1
Result: 0.319

Query: Report solubility (mole fraction), nothing else, for this molecule: CC(=O)c1ccc([N+](=O)[O-])cc1
Result: 0.33

* * *

Assay conditions: in isopropanol, 278.15 K
Measured endpoint: solubility (mole fraction)

Query: Report solubility (mole fraction), nothing else, for this compound: CC(=O)c1cccc([N+](=O)[O-])c1
Result: 0.00433

Query: Report solubility (mole fraction), nothing else, for this compound: CC(=O)c1ccc([N+](=O)[O-])cc1
Result: 0.00349

* * *

Assay conditions: in acetone, 318.15 K
Measured endpoint: solubility (mole fraction)

Query: Report solubility (mole fraction), nothing else, for this molecule: CC(=O)c1cccc([N+](=O)[O-])c1
Result: 0.458

Query: Report solubility (mole fraction), nothing else, for this molecule: CC(=O)c1ccc([N+](=O)[O-])cc1
Result: 0.428

* * *

Assay conditions: in isopropanol, 293.15 K
Measured endpoint: solubility (mole fraction)

Query: Report solubility (mole fraction), nothing else, for this compound: CC(=O)c1cccc([N+](=O)[O-])c1
Result: 0.00778

Query: Report solubility (mole fraction), nothing else, for this compound: CC(=O)c1ccc([N+](=O)[O-])cc1
Result: 0.00758

* * *

Assay conditions: in methanol, 278.15 K
Measured endpoint: solubility (mole fraction)

Query: Report solubility (mole fraction), nothing else, for this compound: CC(=O)c1ccc([N+](=O)[O-])cc1
Result: 0.00839

Query: Report solubility (mole fraction), nothing else, for this compound: CC(=O)c1cccc([N+](=O)[O-])c1
Result: 0.00642

* * *

Assay conditions: in toluene, 288.15 K
Measured endpoint: solubility (mole fraction)

Query: Report solubility (mole fraction), nothing else, for this compound: CC(=O)c1cccc([N+](=O)[O-])c1
Result: 0.082

Query: Report solubility (mole fraction), nothing else, for this compound: CC(=O)c1ccc([N+](=O)[O-])cc1
Result: 0.0959

* * *

Assay conditions: in cyclohexane, 288.15 K
Measured endpoint: solubility (mole fraction)

Query: Report solubility (mole fraction), nothing else, for this compound: CC(=O)c1cccc([N+](=O)[O-])c1
Result: 0.00159

Query: Report solubility (mole fraction), nothing else, for this compound: CC(=O)c1ccc([N+](=O)[O-])cc1
Result: 0.00203

* * *

Assay conditions: in cyclohexane, 318.15 K
Measured endpoint: solubility (mole fraction)

Query: Report solubility (mole fraction), nothing else, for this molecule: CC(=O)c1cccc([N+](=O)[O-])c1
Result: 0.00743

Query: Report solubility (mole fraction), nothing else, for this molecule: CC(=O)c1ccc([N+](=O)[O-])cc1
Result: 0.0089

* * *

Assay conditions: in ethyl acetate, 303.15 K
Measured endpoint: solubility (mole fraction)

Query: Report solubility (mole fraction), nothing else, for this compound: CC(=O)c1ccc([N+](=O)[O-])cc1
Result: 0.22

Query: Report solubility (mole fraction), nothing else, for this compound: CC(=O)c1cccc([N+](=O)[O-])c1
Result: 0.191

* * *

Assay conditions: in ethyl acetate, 283.15 K
Measured endpoint: solubility (mole fraction)

Query: Report solubility (mole fraction), nothing else, for this compound: CC(=O)c1ccc([N+](=O)[O-])cc1
Result: 0.117

Query: Report solubility (mole fraction), nothing else, for this compound: CC(=O)c1cccc([N+](=O)[O-])c1
Result: 0.0906

* * *

Assay conditions: in n-propanol, 288.15 K
Measured endpoint: solubility (mole fraction)

Query: Report solubility (mole fraction), nothing else, for this compound: CC(=O)c1cccc([N+](=O)[O-])c1
Result: 0.00609

Query: Report solubility (mole fraction), nothing else, for this compound: CC(=O)c1ccc([N+](=O)[O-])cc1
Result: 0.00762

* * *

Assay conditions: in ethyl acetate, 313.15 K
Measured endpoint: solubility (mole fraction)

Query: Report solubility (mole fraction), nothing else, for this compound: CC(=O)c1ccc([N+](=O)[O-])cc1
Result: 0.3

Query: Report solubility (mole fraction), nothing else, for this compound: CC(=O)c1cccc([N+](=O)[O-])c1
Result: 0.277

* * *

Assay conditions: in n-propanol, 308.15 K
Measured endpoint: solubility (mole fraction)

Query: Report solubility (mole fraction), nothing else, for this compound: CC(=O)c1ccc([N+](=O)[O-])cc1
Result: 0.0194

Query: Report solubility (mole fraction), nothing else, for this compound: CC(=O)c1cccc([N+](=O)[O-])c1
Result: 0.0157
